- assayed_system: furin, P09958;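 further: purified furin at 1:10 enzyme:substrate in 50 mM HEPES pH 7.5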
- Sequence (P09958 whole entry): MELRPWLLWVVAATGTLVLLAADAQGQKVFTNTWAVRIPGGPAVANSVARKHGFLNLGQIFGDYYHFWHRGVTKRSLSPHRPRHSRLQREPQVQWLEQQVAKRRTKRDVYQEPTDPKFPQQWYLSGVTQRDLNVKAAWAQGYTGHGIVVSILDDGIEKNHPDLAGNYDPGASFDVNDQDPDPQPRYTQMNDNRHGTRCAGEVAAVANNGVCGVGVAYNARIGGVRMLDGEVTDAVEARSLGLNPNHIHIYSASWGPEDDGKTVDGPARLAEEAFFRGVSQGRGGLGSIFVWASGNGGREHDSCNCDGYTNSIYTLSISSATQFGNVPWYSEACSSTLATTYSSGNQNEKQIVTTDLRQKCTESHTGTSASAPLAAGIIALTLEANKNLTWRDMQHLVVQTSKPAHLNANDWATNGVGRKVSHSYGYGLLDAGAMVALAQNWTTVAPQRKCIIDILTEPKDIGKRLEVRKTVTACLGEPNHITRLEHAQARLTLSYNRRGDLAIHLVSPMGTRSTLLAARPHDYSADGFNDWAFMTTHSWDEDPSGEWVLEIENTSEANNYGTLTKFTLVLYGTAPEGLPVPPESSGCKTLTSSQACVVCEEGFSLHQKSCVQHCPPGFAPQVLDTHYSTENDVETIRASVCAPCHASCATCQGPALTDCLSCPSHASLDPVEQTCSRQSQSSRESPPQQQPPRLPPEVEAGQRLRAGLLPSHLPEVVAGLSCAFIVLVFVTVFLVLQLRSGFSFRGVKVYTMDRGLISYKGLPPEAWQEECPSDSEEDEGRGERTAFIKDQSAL
- protocol_description: furin cleavage Z-score vs untreated control; higher = more cleavage, active = 3.5 or more, inactive = 1 or less, 8 variable residues between constant flanks
- condition_set: 30 min
The other results are listed elsewhere or left out. How many sequences the whole screen found active is unknown.
Classes used: active, inactive

sequence_record	class_assignment
CAGPGEGAVQAGNASASA [HC1114]	inactive
CAAMGRGKRQAGNASASA [FS-1184]	active
CALWWLQYFLAGNASASA [HC582]	inactive
CAEKRRSADIAGNASASA [FS-2630]	inactive
